test system: Enterobacter cloacae; test: In vitro antibacterial activity measured as minimum inhibitory concentration, was evaluated on Enterobacter cloacae ATCC 23355 (Ecl).; assay type: functional; conditions: Enterobacter cloacae, ATCC 23355; read-out: MIC
Documented MIC across a set of molecules
Write the value in µg/mL as a bare number.

molecule | measurement_target | MIC [µg/mL]
C[C@@H]1[C@@H](NC(=O)[C@@H](C)N)CN1c1nc2c(cc1F)c(=O)c(C(=O)O)cn2C1CC1 | Enterobacter cloacae | 4
CNC1(C)CN(c2c(F)cc3c(=O)c(C(=O)O)cn4c3c2OC[C@@H]4C)C1 | Enterobacter cloacae | 0.06
C[C@H]1[C@H](N)CN1c1nc2c(cc1F)c(=O)c(C(=O)O)cn2-c1ccc(F)cc1F (single isomer, unassigned) | Enterobacter cloacae | 0.06
C[C@@H]1[C@@H](N)CN1c1cc2c(cc1F)c(=O)c(C(=O)O)cn2-c1ccc(F)cc1F | Enterobacter cloacae | 1
C[C@@H]1[C@@H](N)CN1c1c(F)cc2c(=O)c(C(=O)O)cn3c2c1OC[C@@H]3C | Enterobacter cloacae | 0.25
C[C@H](N)C(=O)N[C@@H](C)C(=O)N[C@@H]1CN(c2nc3c(cc2F)c(=O)c(C(=O)O)cn3C2CC2)[C@H]1C | Enterobacter cloacae | 2
Cc1c(F)c(N2C[C@H](N)[C@H]2C)nc2c1c(=O)c(C(=O)O)cn2-c1ccc(F)cc1F | Enterobacter cloacae | 0.12

Attention now shifts to the item below.
The recorded MIC for entry C[C@@H]1[C@@H](N)CN1c1cc2c(cc1F)c(=O)c(C(=O)O)cn2C1CC1 equals 0.25

====

conditions: mouse, in vivo, po, 50 mg/kg
Description: AUC in mice after oral dose (50 mg/kg)
AUC: recorded values
Numeric answer only, unit ng·h/mL assumed.

Check out these entries, answers already filled in.
molecule | AUC [ng·h/mL]
C[C@@H]1[C@@H](N)CN1c1nc2c(cc1F)c(=O)c(C(=O)O)cn2-c1ccc(F)cc1F | 28300
C[C@H]1COc2c(N3CCN(C)CC3)c(F)cc3c(=O)c(C(=O)O)cn1c23.C[C@H]1COc2c(N3CCN(C)CC3)c(F)cc3c(=O)c(C(=O)O)cn1c23.O | 10200
CCn1cc(C(=O)O)c(=O)c2c(N)c(F)c(N3C[C@H](N)[C@H]3C)c(F)c21 | 12500
CC(C)C[C@H](N)C(=O)N[C@@H]1CN(c2nc3c(cc2F)c(=O)c(C(=O)O)cn3C2CC2)[C@H]1C | 24900

For record CCn1cc(C(=O)O)c(=O)c2cc(F)c(N3C[C@H](N)[C@H]3C)c(F)c21 the listed AUC is 21000

Sample C[C@H]1[C@H](N)CN1c1cc2c(cc1F)c(=O)c(C(=O)O)cn2-c1ccc(F)cc1F (single isomer, unassigned) ; AUC observed: 28400

Please fill in: AUC reported for C[C@H]1[C@H](N)CN1c1cc2c(cc1F)c(=O)c(C(=O)O)cn2C1CC1 (single isomer, unassigned) = 4000

====

system: Proteus vulgaris; assay: In vitro antibacterial activity measured as minimum inhibitory concentration was evaluated on proteus vulgaris ATCC 8427 (Pv).; type: functional; conditions: Proteus vulgaris, ATCC 8427; read-out: MIC
# note: exactly 0.5 µg/mL is not below, so it is FALSE; use TRUE for MIC strictly under it

compound | label_class
C[C@H]1[C@@H](N)CN1c1c(F)cc2c(=O)c(C(=O)O)cn(C3CC3)c2c1F | FALSE
C[C@@H]1[C@@H](N)CN1c1c(F)c(N)c2c(=O)c(C(=O)O)cn(C3CC3)c2c1F | TRUE
Cc1c(F)c(N2C[C@H](N)[C@H]2C)nc2c1c(=O)c(C(=O)O)cn2-c1ccc(F)cc1F | FALSE
C[C@@H](N)C(=O)N[C@@H]1CN(c2nc3c(cc2F)c(=O)c(C(=O)O)cn3C2CC2)[C@H]1C | FALSE
C[C@H]1COc2c(N3CC(N)C3)c(F)cc3c(=O)c(C(=O)O)cn1c23 | TRUE
C[C@@H]1[C@@H](N)CN1c1c(F)cc2c(=O)c(C(=O)O)cn(-c3ccc(F)cc3)c2c1F | TRUE
CCn1cc(C(=O)O)c(=O)c2c(N)c(F)c(N3C[C@H](N)[C@H]3C)c(F)c21 | TRUE
C[C@H](N)C(=O)N[C@@H]1CN(c2nc3c(cc2F)c(=O)c(C(=O)O)cn3C2CC2)[C@H]1C | FALSE
C[C@@H]1[C@@H](N)CN1c1c(F)cc2c(=O)c(C(=O)O)cn(C3CC3)c2c1Cl | TRUE
CC1C(N)CN1c1c(F)c(N)c2c(=O)c(C(=O)O)cn(C3CC3)c2c1F (centres undefined) | TRUE

We next turn to a different compound, shown below.
stdin: Hello, is MIC of the following compound strictly smaller than 0.5 µg/mL? Cc1c(F)c(N2C[C@H](N)[C@H]2C)nc2c1c(=O)c(C(=O)O)cn2C1CC1
stdout: TRUE

====

system: Proteus vulgaris; experiment: In vitro antibacterial activity measured as minimum inhibitory concentration was evaluated on proteus vulgaris ATCC 8427 (Pv).; format: functional; details: Proteus vulgaris, ATCC 8427; read-out: MIC
# MIC per record follows
Enter your answer as a number in µg/mL; do not include the unit.

compound | measurement_target | result_type | value_observed
C[C@H]1[C@H](N)CN1c1c(F)cc2c(=O)c(C(=O)O)cn(C3CC3)c2c1Cl (single isomer, unassigned) | Proteus vulgaris | MIC | 0.015
CC1C(N)CN1c1c(F)cc2c(=O)c(C(=O)O)cn3c2c1OC[C@@H]3C (single isomer, unassigned) | Proteus vulgaris | MIC | 0.06
C[C@@H]1[C@@H](N)CN1c1cc2c(cc1F)c(=O)c(C(=O)O)cn2-c1ccc(F)cc1F | Proteus vulgaris | MIC | 2
C[C@@H]1[C@@H](N)CN1c1cc2c(cc1F)c(=O)c(C(=O)O)cn2C1CC1 | Proteus vulgaris | MIC | 1
CC1C(N)CN1c1nc2c(cc1F)c(=O)c(C(=O)O)cn2C1CC1 (stereo not drawn) | Proteus vulgaris | MIC | 0.06
CC1C(N)CN1c1cc2c(cc1F)c(=O)c(C(=O)O)cn2C1CC1 (stereo not drawn) | Proteus vulgaris | MIC | 0.06

CC1C(N)CN1c1nc2c(cc1F)c(=O)c(C(=O)O)cn2-c1ccc(F)cc1F (stereo not drawn) yielded MIC of 1

Reported MIC for C[C@@H]1[C@@H](N)CN1c1c(F)cc2c(=O)c(C(=O)O)cn(-c3ccc(F)cc3F)c2c1Cl was 1

====

tested on: Escherichia coli; assay: In vitro antibacterial activity measured as minimum inhibitory concentration, was evaluated on Escherichia coli ATCC 23559(Ec).; type: functional; conditions: Escherichia coli, ATCC 23559; read-out: MIC
result_type: MIC (µg/mL)
Note: unit µg/mL is implicit; provide only the numeric part.

Guide cases for MIC, answers given:
compound | unit_string | MIC
C[C@@H]1[C@@H](N)CN1c1c(F)cc2c(=O)c(C(=O)O)cn(C3CC3)c2c1Cl | µg/mL | 0.25
C[C@H]1[C@H](N)CN1c1c(F)cc2c(=O)c(C(=O)O)cn(C3CC3)c2c1F (single isomer, unassigned) | µg/mL | 0.015
C[C@H]1COc2c(N3CC(C)(N(C)C)C3)c(F)cc3c(=O)c(C(=O)O)cn1c23 | µg/mL | 0.12

Entry C[C@@H]1[C@@H](NC(=O)[C@@H](C)N)CN1c1nc2c(cc1F)c(=O)c(C(=O)O)cn2C1CC1 : MIC on Escherichia coli = 1

Escherichia coli data for C[C@H]1[C@H](N)CN1c1cc2c(cc1F)c(=O)c(C(=O)O)cn2C1CC1 (single isomer, unassigned) ; its MIC: 0.015

====

tested on: Staphylococcus epidermidis; test: In vitro antibacterial activity measured as minimum inhibitory concentration was evaluated on Staphylococcus epidermidis ATCC 155-1 (Se).; format: functional; conditions: Staphylococcus epidermidis, ATCC 155-1; read-out: MIC
result_type: MIC (µg/mL)
Provide the reading as a plain figure in µg/mL.

compound | result_type | unit_string | value_observed
C[C@H]1COc2c(N3CC(N(C)C)C3)c(F)cc3c(=O)c(C(=O)O)cn1c23 | MIC | µg/mL | 0.12
CNC1(C)CN(c2c(F)cc3c(=O)c(C(=O)O)cn4c3c2OC[C@@H]4C)C1 | MIC | µg/mL | 0.12

Turning now to a further compound:
Lab note: measured MIC of C[C@H]1COc2c(N3CCN(C)CC3)c(F)cc3c(=O)c(C(=O)O)cn1c23.C[C@H]1COc2c(N3CCN(C)CC3)c(F)cc3c(=O)c(C(=O)O)cn1c23.O [LEVOFLOXACIN] was 0.12

Reference source for all entries: ChEMBL document CHEMBL1128288
